- System: HEK-293T
- protocol description: Cytotoxicity against human HEK 293T cells assessed as cell viability at 30 uM measured after 48 hrs by Celltiter-glo assay
- Assay type: cell-based
Exam item: assign Satisfied to entries whose Activity is below 70% and Not satisfied to entries at or above 70%. Note that a value of exactly 70% receives Not satisfied.

Given `COC(=O)c1ccccc1NC(=O)CCCc1cn(OC)c2ccccc12` , is recorded Activity strictly lower than 70%? Satisfied

Activity under 70%? Item: `COn1cc(CC(=O)Nc2cccc(Cl)c2)c2ccccc21` Satisfied

is_below(Activity, 70%) for `COn1cc(CC(=O)Nc2ccc([N+](=O)[O-])cc2)c2ccccc21` ? Satisfied

I wonder whether `COc1cccc(NC(=O)Cc2cn(OC)c3ccccc23)c1` has Activity below 70%. Can you tell? Not satisfied

Quick check: does `Cc1ccnc2c1NC(=O)c1cccnc1N2C1CC1` have Activity under 70%? Not satisfied

Threshold test, Activity < 70%: `COn1cc(CC(=O)Nc2ccccn2)c2ccccc21` Satisfied

Determine if `COn1cc(CC(=O)Nc2cc(C)cc(C)c2)c2ccccc21` shows Activity strictly lower than 70%. Satisfied

Just wondering, is Activity of `CCCOn1cc(Cc2ccncc2Cl)c2ccccc21` below 70%? Satisfied

# check: Activity < 70% for `COn1cc(CC(=O)Nc2cccnc2)c2ccccc21` Not satisfied

src = ChEMBL document CHEMBL4765253
